The values you see were collected from patent US4035566A.

- System: murine P 388 leukemia
- Experiment notes: in vivo antitumor activity against murine P 388 leukemia (Geran et al. procedure)
- Parameters: species or system BDF1 male mice
- Details: Table II; i.p., qd 1-4; optimal dose mg/kg: acetate 40, isobutyrate 40, valerate 40, caproate 60, caprylate 60
Observable: Survivors 60da

Solved entries (count: 2):
[
  {
    "Molecule": "COc1cccc2c1C(=O)c1c(O)c3c(c(O)c1C2=O)C[C@@](O)(C(=O)COC(C)=O)C[C@@H]3O[C@H]1C[C@H](NC(=O)C(F)(F)F)[C@H](O)[C@H](C)O1 [Acetate, N-trifluoroacetyladriamycin-14-acetate]",
    "Survivors 60da": "0/5"
  },
  {
    "Molecule": "CCCCC(=O)OCC(=O)[C@]1(O)Cc2c(O)c3c(c(O)c2[C@@H](O[C@H]2C[C@H](NC(=O)C(F)(F)F)[C@H](O)[C@H](C)O2)C1)C(=O)c1c(OC)cccc1C3=O [N-Trifluoroacetyladriamycin-14-valerate]",
    "Survivors 60da": "3/5"
  }
]

Moving on to the next molecule.
// sample CCCCCCCC(=O)OCC(=O)[C@]1(O)Cc2c(O)c3c(c(O)c2[C@@H](O[C@H]2C[C@H](NC(=O)C(F)(F)F)[C@H](O)[C@H](C)O2)C1)C(=O)c1c(OC)cccc1C3=O [Caprylate, N-Trifluoroacetyladriamycin-14-caprylate] , its Survivors 60da was 1/5
